- Tested on: U-251
- assay details: NCI tumour cell line growth inhibition, 48 h
Calls of active or inactive are those of the source. No stated cut-off is given here; in the data, active = GI50 up to about 1.1 µM and inactive = higher.
The reply should be one of these categories: TRUE = active, FALSE = inactive

Known results for compounds:
compound	class name
C=CCNC(=O)/C=C\C(=O)O	FALSE
Cc1c(N2CCN(C)CC2)nc2ccc(Cl)cc2c1-c1ccccc1	FALSE
O=[N+]([O-])/C=C/c1ccc(Cl)cc1Cl	FALSE
C/C1=C\[C@@H](C)C[C@@H](C)OC(=O)[C@@H](C)NC(=O)[C@H](Cc2ccc(O)c(Br)c2)N(C)C(=O)CNC(=O)[C@H](C)C1	TRUE

Per the records of this test, what outcome belongs to O=c1cc(-c2ccccc2)oc2cc(O)cc(O)c12 [CHRYSIN] ?
FALSE

* * *

- Tested on: HOP-92
- assay details: NCI tumour cell line growth inhibition, 48 h
Activity calls are given as the source filed them. Cut-off read from the data, not from the text of the source: active = GI50 up to about 1.1 µM and inactive = higher.
recorded metric: GI50

Illustrative cases are given below, each with its answer.
molecule	target or test system	meas value
CS(=O)(=O)c1ccc(COP(N)(=O)N(CCCl)CCCl)cc1 (stereo not drawn)	HOP-92	> 100 µM (inactive)
CCOC(=O)c1ccc(NCc2ccc3oc(=O)c(-c4ccccc4)nc3c2)cc1	HOP-92	31.2 µM (inactive)
COC(=O)/C=C1/CCC2[C@@H](C(=O)CC3[C@]2(C)CCC[C@@]3(C)C(=O)OC)C1C (stereo partly drawn)	HOP-92	5.13 µM (inactive)

Please report the recorded GI50 for O=C1NC2C(=O)N(Cc3ccccc3)C(=O)C2N1 (stereo not drawn) .
> 100 µM (inactive)

Same read-out for "O=C(Nc1ccc(Cl)cc1)c1cc(S(=O)(=O)Nc2n[nH]c(=O)n2-c2ccccc2)c(S)cc1Cl" ?
> 100 µM (inactive)

Same for CC1=C(C)C(=O)OC(C(C)(O)C2(O)CC3OC34C3CC(O)C56OC5C=CC(=O)C6(C)C3CCC42C)C1 (stereo not drawn)
1.82 µM (inactive)

* * *

GI50: recorded values
- System: MDA-MB-231
- assay details: NCI tumour cell line growth inhibition, 48 h
Active and inactive are the calls of the source. Cut-off read from the data, not from the text of the source: active = GI50 up to about 1.1 µM and inactive = higher.

The examples below pair each entry with its known result.
> print(dat)
                                   compound           meas.value
1  OCCCc1ccc2c(c1)[C@H](CO)[C@@H](c1ccc(O)cc1)O2  > 100 µM (inactive)
2  COCO[C@@H]1C[C@H]2C(O)Nc3ccccc3C(=O)N2C1 (stereo not given in full)  > 100 µM (inactive)

Request - read-out GI50 | tested on MDA-MB-231 | compound "O=[N+]([O-])c1cc(Cl)ccc1Sc1ccccc1"
> 100 µM (inactive)

Now this one: "CSc1nnc(SCc2nn3c(=O)cc(C)nc3s2)s1"
> 100 µM (inactive)

Follow-up entry: "CNC1=CC(=O)C2=C(C1=O)[C@H]1CC[C@]3(C)C(=O)CC[C@H]3[C@@H]1CC2"
24.5 µM (inactive)

* * *

- Tested on: SK-OV-3
- assay details: NCI tumour cell line growth inhibition, 48 h
Calls of active or inactive are those of the source. Rule as the data show it: active = GI50 up to about 1.1 µM and inactive = higher.
Answer with one of the outcomes TRUE = active, FALSE = inactive

compound	class name
O=Cc1cc2c(cc1-c1c(C=O)ccc3c1OCO3)OCO2	FALSE

Call for entry C=C[C@H]1CN2CC[C@H]1C[C@@H]2[C@@H](O)c1ccnc2ccccc12 [CINCHONINE] :
FALSE

Lookup "C/C1=C\[C@@H](C)C[C@@H](C)OC(=O)[C@@H](C)NC(=O)[C@H](Cc2ccc(O)c(Br)c2)N(C)C(=O)CNC(=O)[C@H](C)C1"
TRUE

Param item: "CC(C)c1ccc(O)c(=O)c(O)c1.CC(C)c1ccc(O)c(=O)cc1.CC(C)c1cccc(=O)c(O)c1.CC(C)c1ccccc(=O)c1O"
FALSE

Record: "NN=C1/C(=C\c2ccccc2)CCC/C1=C/c1ccccc1"
FALSE

* * *

- Test system: HCT-116
- assay details: NCI tumour cell line growth inhibition, 48 h
Activity calls are given as the source filed them. No stated cut-off is given here; in the data, active = GI50 up to about 1.1 µM and inactive = higher.
Entry note: the call must match one of active, inactive

> print(dat)
                                   compound  class.name
1      O=[N+]([O-])C(=C(Cl)Cl)C(Cl)=C(Cl)Cl      active
2  COC1C(C)OC(OC2CC(C)(O)Cc3cc4c(c(O)c32)C(=O)c2c(O)cc3c(c2C4=O)OC2OC3(C)C(O)C(N(C)C)C2O)C(OC)C1(C)OC (stereo not given)      active
3  COC(=O)/C=C1/CCC2[C@@H](C(=O)CC3[C@]2(C)CCC[C@@]3(C)C(=O)OC)C1C (stereo not given in full)    inactive
4  CCCc1nn(C)c(CCC(=O)N(Cc2ccccc2)Cc2ccccc2)c1CC    inactive
5  O=C(/C=C/c1c(O)ccc2ccccc12)c1ccc2ccccc2c1    inactive
6  Cn1c(=O)c2nc(/N=N/Nc3nncs3)[nH]c2n(C)c1=O    inactive
7  CCOC(=O)Cc1nc2ccc3c(c2nc1O)C(=O)c1ccccc1C3=O    inactive
8      C=C(CC)C(=O)c1ccc(OCC(=O)O)c(Cl)c1Cl    inactive

Call for entry O=C1CC(=O)NC(NN2C(=O)CSC2c2ccc(Cl)c(Cl)c2)=N1 (stereo not given) :
inactive

Input Cc1nn(C(=O)c2ccncc2)c2c1C(c1ccc(Cl)cc1)SC(=N)N2 (stereo not given)
inactive

* * *

# GI50 values compiled below
- Tested on: HCC 2998
- assay details: NCI tumour cell line growth inhibition, 48 h
Active and inactive are the calls of the source. Rule as the data show it: active = GI50 up to about 1.1 µM and inactive = higher. Square brackets hold non-standard residues; d marks the D form. Peptide text beside a SMILES is read from it. Phe(4-Cl) = N[CH](Cc1ccc(Cl)cc1)C(=O)O; 2Nal = N[CH](Cc1ccc2ccccc2c1)C(=O)O; 3Pal = N[CH](Cc1cccnc1)C(=O)O

Known results for compounds:
compound	GI50
O=c1[nH]c(=S)c2cc3c(=S)[nH]c(=O)n(CCC(c4ccccc4)(c4ccccc4)c4ccccc4)c3nc2n1CCC(c1ccccc1)(c1ccccc1)c1ccccc1	> 100 µM (inactive)
COc1ccc(OC)c2c1C(=O)C(Cl)=C(N1CCN(CCOCCO)CC1)C2=O	12.4 µM (inactive)
C1=CC2CCC1CN2CCC1CNc2ccccc21 (stereo unspecified)	> 100 µM (inactive)
O=C(O)c1ccc(Nc2cnc3cc(C(F)(F)F)ccc3n2)cc1	30.2 µM (inactive)
C=C(Nc1ccc([N+](=O)[O-])cc1[N+](=O)[O-])c1c/c(=N\NC(N)=S)c2ccccc2o1	95.9 µM (inactive)

What does the data say about its GI50? Entry: CC(=O)NC(Cc1ccc2ccccc2c1)C(=O)NC(Cc1ccc(Cl)cc1)C(=O)NC(Cc1cccnc1)C(=O)NC(CO)C(=O)NC(Cc1ccc(O)cc1)C(=O)NC(CCCN=C(N)N)C(=O)NC(CC(C)C)C(=O)NC(CCCN=C(N)N)C(=O)N1CCCC1C(=O)NC(C)C(N)=O (stereo unspecified) (Ac-[2Nal][Phe(4-Cl)][3Pal]SYRLRPA-NH2; configuration not given here)
> 100 µM (inactive)

What do you get for "NC(=S)NS(=O)(=O)c1ccc(Cl)cc1Cl" ?
> 100 µM (inactive)

// repeat for "O=C(Nc1cccc(C(F)(F)F)c1)O/N=C(/Cl)CCl" and report
> 100 µM (inactive)

"COc1ccc(C[C@H]2COC(=O)[C@@H]2Cc2ccc(Br)cc2)cc1OC" , same question.
28.3 µM (inactive)

What do we get for "O=C1CCN(CCC(F)(F)C(F)(F)C(F)(F)C(F)(F)C(F)(F)C(F)(F)F)C(=S)N1CCC(F)(F)C(F)(F)C(F)(F)C(F)(F)C(F)(F)C(F)(F)F" ?
> 100 µM (inactive)

Check "O=C(N/N=C(COc1ccc(Cl)cc1)\N=C\c1cccnc1)c1ccncc1" too.
88.1 µM (inactive)

* * *

Attribute: GI50
- System: HOP-92
- assay details: NCI tumour cell line growth inhibition, 48 h
Calls of active or inactive are those of the source. No stated cut-off is given here; in the data, active = GI50 up to about 1.1 µM and inactive = higher.

compound	target or test system	GI50
COc1ccc(C2N3CCCCC3[C@@H]3c4[nH]c5ccccc5c4CCN23)c(OC)c1 (some centres undefined)	HOP-92	49.9 µM (inactive)
COc1cc(CN2CCCCC2)cc2cc(C(=O)O)c(=O)oc12	HOP-92	> 100 µM (inactive)
Oc1c(Cl)c(Cl)c(O)c(CCNc2nccs2)c1Cl	HOP-92	32.4 µM (inactive)

Please report the recorded GI50 for "COc1ccc(OC)c(CCc2ccccc2CC(=O)O)c1" .
> 100 µM (inactive)

* * *

- Test system: MDA-N
- assay details: NCI tumour cell line growth inhibition, 48 h
The source made the active and inactive calls. Rule as the data show it: active = GI50 up to about 1.1 µM and inactive = higher.
Choose the fitting class; nothing outside active, inactive is accepted.

> print(dat)
                       compound  class.name
1  COc1ccc2[nH]c3nnc(N)c-3nc2c1    inactive

Entry "COc1cccc(-c2cc(O)c3cc(N4CCOCC4)ccc3n2)c1" : call = ?
active

Proceed to "O=C(O)c1ccc(Nc2cnc3cc(C(F)(F)F)ccc3n2)cc1"
inactive

Would you kindly repeat that for "O=C(Nc1ccc(Nc2ccc3c(c2)C(=O)c2ccccc2C3=O)c2c1C(=O)c1ccccc1C2=O)c1ccccc1" ?
inactive

Next compound up: COc1ccc(C(c2ccccc2)N2C(=O)CCC2C(=O)O)cc1OC (stereo not given)
inactive
